- ASSAY_NAME: Example 3: plasma pharmacokinetics of two sequential doses
- Type: in vivo, human
- EXPERIMENTAL_CONTEXT: male, human, po, 2400 mg, healthy males, 2400 mg oral, Day 1, N 11, read-out: Cmax, Median
MEASURE: Cmax (ng/mL)
Only the number, expressed in ng/mL, is required.

Quick note, Cmax for "CC(C)(C[C@H](N)C(=O)O)C(F)F" landed at 47000

====

- ASSAY_NAME: Example 3: plasma pharmacokinetics of two sequential doses
- Format: in vivo, human
- EXPERIMENTAL_CONTEXT: male, human, po, 2400 mg, healthy males, 2400 mg oral, second dose, Day 3, N 11, read-out: AUC(0-24), Geometric mean
MEASURE: AUC

# AUC (compound: "CC(C)(C[C@H](N)C(=O)O)C(F)F" ) is 350 µg·h/mL

====

- ASSAY_NAME: Example 3: plasma pharmacokinetics of two sequential doses
- Type: in vivo, human
- EXPERIMENTAL_CONTEXT: male, human, po, 2400 mg, healthy males, 2400 mg oral, Day 1, N 11, read-out: AUClast, Mean
MEASURE: AUC(0-t) (µg·h/mL)
Form entry: value (µg·h/mL) — number only.

Looking up "CC(C)(C[C@H](N)C(=O)O)C(F)F" , I see its AUC(0-t) listed as 409

====

- ASSAY_NAME: Example 3: plasma pharmacokinetics of two sequential doses
- Type: in vivo, human
- EXPERIMENTAL_CONTEXT: male, human, po, 2400 mg, healthy males, 2400 mg oral, Day 1, N 11, read-out: AUClast, Median
MEASURE: AUC(0-t)

molecule "CC(C)(C[C@H](N)C(=O)O)C(F)F" , AUC(0-t) observed: 422 µg·h/mL

====

- ASSAY_NAME: Example 3: plasma pharmacokinetics of two sequential doses
- Assay type: in vivo, human
- EXPERIMENTAL_CONTEXT: male, human, po, 2400 mg, healthy males, 2400 mg oral, Day 1, N 11, read-out: T1/2, Median (converted)
MEASURE: half-life (h)
The figure you give is taken to be in h; do not add the unit.

GET /value?item= "CC(C)(C[C@H](N)C(=O)O)C(F)F" &field=half-life returns 12

====

- ASSAY_NAME: Example 3: plasma pharmacokinetics of two sequential doses
- Assay type: in vivo, human
- EXPERIMENTAL_CONTEXT: male, human, po, 2400 mg, healthy males, 2400 mg oral, second dose, Day 3, N 11, read-out: AUC(0-24), Mean
MEASURE: AUC (µg·h/mL)
Express it in µg·h/mL; write the number only.

get_value(item= "CC(C)(C[C@H](N)C(=O)O)C(F)F" , readout=AUC) returns 353

====

- ASSAY_NAME: 14-day Q3D oral toxicology study in rats
- Assay type: in vivo, rat
- EXPERIMENTAL_CONTEXT: rat, in vivo; rats; 160, 500 or 1000 mg/kg PO Q3D for 14 days (5 doses); read-out: no-observed-adverse-effect level (NOAEL)
MEASURE: NOAEL at 14 days (mg/kg)
# output: bare number, implied unit mg/kg

Value of NOAEL at 14 days reported for the compound "CC(C)(C[C@H](N)C(=O)O)C(F)F" is 160
